molecular target: UniProtKB P04665; assay type: cell-based; details: read-out: RNP_ Hubei B IC50
Sequence (P04665 whole entry): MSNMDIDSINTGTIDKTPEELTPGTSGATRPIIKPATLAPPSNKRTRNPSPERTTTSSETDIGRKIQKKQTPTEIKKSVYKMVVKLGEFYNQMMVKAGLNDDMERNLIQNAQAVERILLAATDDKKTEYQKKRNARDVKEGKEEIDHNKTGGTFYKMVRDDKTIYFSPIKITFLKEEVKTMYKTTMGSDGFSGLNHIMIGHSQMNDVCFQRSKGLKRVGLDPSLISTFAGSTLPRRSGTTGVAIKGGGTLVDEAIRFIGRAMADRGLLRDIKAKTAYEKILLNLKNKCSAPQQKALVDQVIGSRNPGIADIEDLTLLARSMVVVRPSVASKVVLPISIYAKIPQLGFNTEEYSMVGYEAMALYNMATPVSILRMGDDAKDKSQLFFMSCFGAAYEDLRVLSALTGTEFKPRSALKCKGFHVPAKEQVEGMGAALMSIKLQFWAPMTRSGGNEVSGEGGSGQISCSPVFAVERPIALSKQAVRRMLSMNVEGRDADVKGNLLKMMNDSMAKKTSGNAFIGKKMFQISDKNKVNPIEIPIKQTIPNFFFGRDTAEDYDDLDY
PARAMETER: IC50

CN1[C@@H](COc2ccc(-c3cc(C(N)=O)c(=O)[nH]c3C(F)(F)F)cc2)COC[C@@H]1C1CC1    5 to 10 µM
C[C@@]12O[C@@H](COc3ccc(-c4cc(C(N)=O)c(=O)[nH]c4C(F)(F)F)cc3)CO[C@@H]1C2(F)F    5 to 10 µM

Form field: reported IC50 of C[C@@]1(CF)COC[C@@H](COc2ccc(-c3cc(C(N)=O)c(=O)[nH]c3C(F)(F)F)cc2)O1
5 to 10 µM

Proceed to Cc1cc(COc2ccc(-c3cc(C(N)=O)c(=O)[nH]c3C(F)(F)F)cc2)no1
25 to 50 µM

Proceed to CCc1cc(COc2ccc(-c3cc(C(N)=O)c(=O)[nH]c3C(F)(F)F)cc2)n(C)n1
25 to 50 µM

Proceed to COCCn1cc(COc2ccc(-c3cc(C(N)=O)c(=O)[nH]c3C(F)(F)F)cc2)cn1
25 to 50 µM

Proceed to N#CCC1(COc2ccc(-c3cc(C(N)=O)c(=O)[nH]c3C(F)(F)F)cc2)COC1
25 to 50 µM

* * *

target: influenza A virus minigenome (PB2, PB1, PA, NP proteins); type: cell-based; details: read-out: RNP_Hubei B
pIC50: −log10 of the molar value.
Entries and their measured pIC50 follow.

Guide cases for pIC50, answers given:
CC(Oc1ccc(-c2cc(C(N)=O)c(=O)[nH]c2C(F)(F)F)cc1)c1cccc(C#N)c1 (single isomer, unassigned) [Example 97]    4.30 to 4.60
CN1CCC(COc2ccc(-c3cc(C(N)=O)c(=O)[nH]c3C(F)(F)F)cc2)CC1 [Example 83]    4.30 to 4.60
CC(C)CS(=O)(=O)N1CCCOC(COc2ccc(-c3cc(C(N)=O)c(=O)[nH]c3C(F)(F)F)cc2)C1 (stereo not drawn) [Example 198]    4.30 to 4.60
NC(=O)c1cc(-c2ccc(OCC3OCC4CCC3O4)cc2)c(C(F)(F)F)[nH]c1=O (single isomer, unassigned) [Example 317]    5.00 to 5.30
CO[C@H]1CCN(Cc2ccc(-c3cc(C(N)=O)c(=O)[nH]c3C(F)(F)F)cc2)C1 [Example 40]    4.30 to 4.60
NC(=O)c1cc(-c2ccc(CN3CCOCC3)c(F)c2)c(C(F)(F)F)[nH]c1=O [Example 36]    4.60 to 5.00
CC(Oc1ccc(-c2cc(C(N)=O)c(=O)[nH]c2C(F)(F)F)cc1)c1cccnc1 (single isomer, unassigned) [Example 81]    4.60 to 5.00
N#CCc1ccc(-c2cc(C(N)=O)c(=O)[nH]c2C(F)(F)F)cc1 [Example 20]    4.30 to 4.60
NC(=O)c1cc(-c2ccc(OCc3cccc(N)c3)cc2)c(C(F)(F)F)[nH]c1=O [Example 57]    5.00 to 5.30
NC(=O)c1cc(-c2ccc(OC(c3cccnc3)C3CC3)cc2)c(C(F)(F)F)[nH]c1=O (stereo not drawn) [Example 184]    4.60 to 5.00

Form field: reported pIC50 of N#Cc1ccc(COc2ccc(-c3cc(C(N)=O)c(=O)[nH]c3C(F)(F)F)cc2)cc1 [Example 77]
4.60 to 5.00

Proceed to Cc1cc(-c2cc(C(N)=O)c(=O)[nH]c2C(F)(F)F)ccc1CN1CCOCC1 [Example 43]
5.30 to 6.00

Proceed to NC(=O)c1cc(-c2ccc(OCC3CCCCC3)cc2)c(C(F)(F)F)[nH]c1=O [Example 58]
5.00 to 5.30

Proceed to CN1C(COc2ccc(-c3cc(C(N)=O)c(=O)[nH]c3C(F)(F)F)cc2)COCC1(C)C (stereo not drawn) [Example 207]
5.00 to 5.30

Proceed to C=CCCC(Oc1ccc(-c2cc(C(N)=O)c(=O)[nH]c2C(F)(F)F)cc1)c1cccnc1 (stereo not drawn) [Example 185]
4.60 to 5.00

The values you see were collected from patent US20240360082A1.
